- SYSTEM: Neuronal acetylcholine receptor; alpha4/beta2 (Rattus norvegicus, UniProt P09483+P12390)
- Sequence (P09483 whole entry): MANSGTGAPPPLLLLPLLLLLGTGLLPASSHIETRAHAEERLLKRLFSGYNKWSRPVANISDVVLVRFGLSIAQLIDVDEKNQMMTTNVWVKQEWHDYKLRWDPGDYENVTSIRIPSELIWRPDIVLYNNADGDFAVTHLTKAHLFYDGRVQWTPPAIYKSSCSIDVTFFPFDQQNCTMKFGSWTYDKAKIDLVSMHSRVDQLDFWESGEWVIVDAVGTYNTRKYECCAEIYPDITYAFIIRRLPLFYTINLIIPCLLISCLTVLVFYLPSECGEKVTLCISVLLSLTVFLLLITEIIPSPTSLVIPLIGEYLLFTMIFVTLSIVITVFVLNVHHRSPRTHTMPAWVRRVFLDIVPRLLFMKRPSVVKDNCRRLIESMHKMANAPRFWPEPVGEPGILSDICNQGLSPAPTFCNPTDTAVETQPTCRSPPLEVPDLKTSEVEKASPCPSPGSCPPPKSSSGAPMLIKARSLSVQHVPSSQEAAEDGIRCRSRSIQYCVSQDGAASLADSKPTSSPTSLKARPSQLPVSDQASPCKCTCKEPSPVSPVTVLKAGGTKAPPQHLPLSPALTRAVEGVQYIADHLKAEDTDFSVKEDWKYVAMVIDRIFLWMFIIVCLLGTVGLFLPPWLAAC
- Sequence (P12390 whole entry): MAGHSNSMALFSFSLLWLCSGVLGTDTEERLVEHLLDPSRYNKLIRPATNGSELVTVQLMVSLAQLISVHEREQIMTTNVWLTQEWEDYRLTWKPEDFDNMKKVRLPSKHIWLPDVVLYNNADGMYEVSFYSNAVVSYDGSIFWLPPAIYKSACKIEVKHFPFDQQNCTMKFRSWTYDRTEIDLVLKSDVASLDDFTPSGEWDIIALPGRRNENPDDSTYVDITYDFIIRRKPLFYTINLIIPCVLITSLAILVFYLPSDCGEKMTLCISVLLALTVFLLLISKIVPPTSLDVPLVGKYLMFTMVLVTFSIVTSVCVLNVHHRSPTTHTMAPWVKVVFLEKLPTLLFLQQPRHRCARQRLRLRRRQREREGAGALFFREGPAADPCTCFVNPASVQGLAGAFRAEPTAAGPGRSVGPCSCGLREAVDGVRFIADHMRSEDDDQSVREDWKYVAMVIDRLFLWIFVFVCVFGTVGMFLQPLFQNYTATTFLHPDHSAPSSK
- TEST PROTOCOL: Displacement of [3H]epibatidine from alpha4beta2 nAChR in Sprague-Dawley rat cortex after 2 hrs by liquid scintillation counting
Note to self: use t only for Ki readings below 0.06 µM; a reading exactly at 0.06 µM still gets f.

Consider the worked cases shown below.
O=C(c1occc1Cl)N1CC2CNCC(C2)C1 :: f
O=C(c1ccco1)N1C[C@H]2CN[C@@H](C2)C1 :: f

q: Field: below-cutoff. Rule: recorded Ki strictly less than 0.06 µM. Subject: `O=C(C1CC1)N1CC2CNCC(C2)C1`
a: t

q: Field: below-cutoff. Rule: recorded Ki strictly less than 0.06 µM. Subject: `O=C(c1ccc(Cl)o1)N1CC2CNCC(C2)C1`
a: t

q: Field: below-cutoff. Rule: recorded Ki strictly less than 0.06 µM. Subject: O=C(c1cnco1)N1CC2CNCC2C1 (stereo not given)
a: f

q: Field: below-cutoff. Rule: recorded Ki strictly less than 0.06 µM. Subject: `O=C(c1ccc(Br)o1)N1CC2CNCC(C2)C1`
a: f

q: Field: below-cutoff. Rule: recorded Ki strictly less than 0.06 µM. Subject: `O=C(c1occc1F)N1CC2CNCC(C2)C1`
a: f

q: Field: below-cutoff. Rule: recorded Ki strictly less than 0.06 µM. Subject: O=C(c1ccccc1)N1CC2CNCC2C1 (stereo not given)
a: t

q: Field: below-cutoff. Rule: recorded Ki strictly less than 0.06 µM. Subject: COc1ccc(C(=O)N2CC3CNCC3C2)cc1 (stereo not given)
a: f

* * *

- SYSTEM: Neuronal acetylcholine receptor; alpha3/beta4 (Homo sapiens, UniProt P30926+P32297)
- Sequence (P30926 whole entry): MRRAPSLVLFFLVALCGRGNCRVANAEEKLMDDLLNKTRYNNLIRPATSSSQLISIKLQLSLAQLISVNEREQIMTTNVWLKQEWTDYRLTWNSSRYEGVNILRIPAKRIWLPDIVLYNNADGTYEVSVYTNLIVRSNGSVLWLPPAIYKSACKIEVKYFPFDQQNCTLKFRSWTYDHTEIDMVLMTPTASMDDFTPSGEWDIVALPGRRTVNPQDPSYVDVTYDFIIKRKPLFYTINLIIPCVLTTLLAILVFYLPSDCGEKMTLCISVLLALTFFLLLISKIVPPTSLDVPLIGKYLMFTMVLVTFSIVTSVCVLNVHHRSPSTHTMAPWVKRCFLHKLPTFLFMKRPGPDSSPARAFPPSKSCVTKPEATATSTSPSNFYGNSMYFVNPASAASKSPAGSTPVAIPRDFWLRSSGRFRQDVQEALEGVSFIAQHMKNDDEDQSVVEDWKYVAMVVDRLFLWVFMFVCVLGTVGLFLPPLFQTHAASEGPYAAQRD
- Sequence (P32297 whole entry): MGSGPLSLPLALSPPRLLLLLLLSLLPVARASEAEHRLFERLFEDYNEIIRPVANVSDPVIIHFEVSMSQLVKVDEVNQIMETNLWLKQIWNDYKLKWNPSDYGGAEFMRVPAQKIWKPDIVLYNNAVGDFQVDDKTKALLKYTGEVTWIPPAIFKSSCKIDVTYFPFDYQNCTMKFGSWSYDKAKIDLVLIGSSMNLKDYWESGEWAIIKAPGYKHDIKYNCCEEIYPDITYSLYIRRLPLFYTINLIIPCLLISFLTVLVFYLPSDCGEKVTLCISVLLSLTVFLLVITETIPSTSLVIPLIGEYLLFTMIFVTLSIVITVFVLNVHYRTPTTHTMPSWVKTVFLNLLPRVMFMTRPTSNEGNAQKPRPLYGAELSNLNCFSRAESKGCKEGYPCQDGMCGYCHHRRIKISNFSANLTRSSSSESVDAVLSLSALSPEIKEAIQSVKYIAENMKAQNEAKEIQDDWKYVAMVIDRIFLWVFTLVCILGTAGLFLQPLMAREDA
- TEST PROTOCOL: Displacement of [3H]epibatidine from human alpha3beta4 nAChR expressed in CHO cells after 2 hrs by liquid scintillation counting
- Assay type: cell-based
Each entry falls into one class according to its Ki; the ranges are lo: < 3 µM; med: ≥ 3 µM and < 10 µM; hi: ≥ 10 µM

O=C(c1cc(Cl)co1)N1CC2CNCC2C1 (stereo not given) :: med
O=C(c1ccccn1)N1CC2CNCC2C1 (stereo not given) :: hi
N#Cc1coc(C(=O)N2CC3CNCC3C2)c1 (stereo not given) :: med

q: Hi there! Could you help me figure out the category for `O=C(c1occc1Br)N1CC2CNCC(C2)C1` please?
a: med

q: Hi there! Could you help me figure out the category for `O=C(c1occc1F)N1CC2CNCC(C2)C1` please?
a: hi

q: Hi there! Could you help me figure out the category for `COc1ccc(C(=O)N2CC3CNCC(C3)C2)cc1` please?
a: hi

q: Hi there! Could you help me figure out the category for O=C(c1cnco1)N1CC2CNCC2C1 (stereo not given) please?
a: hi

q: Hi there! Could you help me figure out the category for `O=C(c1ccc(F)o1)N1C[C@H]2CN[C@@H](C2)C1` please?
a: lo

q: Hi there! Could you help me figure out the category for Cc1ccc(C(=O)N2CC3CNCC3C2)o1 (stereo not given) please?
a: hi

q: Hi there! Could you help me figure out the category for `N#Cc1coc(C(=O)N2CC3CNCC(C3)C2)c1` please?
a: hi

q: Hi there! Could you help me figure out the category for O=C(c1ccco1)N1CC2CNC(C2)C1 (stereo not given) please?
a: lo

q: Hi there! Could you help me figure out the category for N#Cc1ccoc1C(=O)N1CC2CNCC2C1 (stereo not given) please?
a: med

q: Hi there! Could you help me figure out the category for `N#Cc1ccc(C(=O)N2CC3CNCC(C3)C2)o1` please?
a: hi

q: Hi there! Could you help me figure out the category for `O=C(c1cc(Cl)co1)N1CC2CNCC(C2)C1` please?
a: med

q: Hi there! Could you help me figure out the category for Cc1ccoc1C(=O)N1CC2CNCC2C1 (stereo not given) please?
a: lo

* * *

Below is a list of entries, each paired with its recorded Ki value.
- SYSTEM: Neuronal acetylcholine receptor; alpha4/beta2 (Rattus norvegicus, UniProt P09483+P12390)
- TEST PROTOCOL: Displacement of [3H]epibatidine from alpha4beta2 nAChR in Sprague-Dawley rat cortex after 2 hrs by liquid scintillation counting

Consider the following illustrative entries.
O=C(c1occc1F)N1CC2CNCC2C1 (stereo unspecified) :: 54 nM
O=C(c1ccc(F)o1)N1C[C@H]2CN[C@@H](C2)C1 :: 120 nM
O=C(c1ccncc1)N1CC2CNCC(C2)C1 :: 57 nM
O=C(c1ncco1)N1CC2CNCC2C1 (stereo unspecified) :: 470 nM

q: Recorded Ki for `O=C(c1cc(Cl)co1)N1CC2CNCC(C2)C1` with Neuronal acetylcholine receptor; alpha4/beta2 (Rattus norvegicus, UniProt P09483+P12390), please?
a: 40 nM

q: Recorded Ki for `O=C(C1CC1)N1C[C@H]2CN[C@@H](C2)C1` with Neuronal acetylcholine receptor; alpha4/beta2 (Rattus norvegicus, UniProt P09483+P12390), please?
a: 10 nM

q: Recorded Ki for Cc1ccoc1C(=O)N1CC2CNCC2C1 (stereo unspecified) with Neuronal acetylcholine receptor; alpha4/beta2 (Rattus norvegicus, UniProt P09483+P12390), please?
a: 22 nM

q: Recorded Ki for `N#Cc1ccc(C(=O)N2CC3CNCC(C3)C2)o1` with Neuronal acetylcholine receptor; alpha4/beta2 (Rattus norvegicus, UniProt P09483+P12390), please?
a: 78 nM

q: Recorded Ki for `O=C(c1ccc(Cl)o1)N1C[C@H]2CN[C@@H](C2)C1` with Neuronal acetylcholine receptor; alpha4/beta2 (Rattus norvegicus, UniProt P09483+P12390), please?
a: 120 nM

* * *

Below is a list of entries, each paired with its recorded pKi value.
- SYSTEM: Neuronal acetylcholine receptor; alpha4/beta2 (Rattus norvegicus, UniProt P09483+P12390)
- TEST PROTOCOL: Displacement of [3H]epibatidine from alpha4beta2 nAChR in Sprague-Dawley rat cortex after 2 hrs by liquid scintillation counting
pKi field: float, defined as -log10 of concentration (mol/L).

COc1ccc(C(=O)N2CC3CNCC(C3)C2)cc1 :: 6.42
O=C(C1CC1)N1C[C@@H]2CN[C@H](C2)C1 :: 7.66
O=C(c1ccc(Oc2ccccc2)cc1)N1CC2CNCC2C1 (configuration not stated) :: 7.41
O=C(c1ccc(Br)o1)N1C[C@@H]2CN[C@H](C2)C1 :: 7.24
O=C(c1ccc(Br)o1)N1C[C@H]2CN[C@@H](C2)C1 :: 7.07

q: Suppose we examine the molecule O=C(c1ccncc1)N1CC2CNCC2C1 (configuration not stated) ; what pKi value has been reported?
a: 7.70

q: Suppose we examine the molecule O=C(c1occc1Br)N1CC2CNCC2C1 (configuration not stated) ; what pKi value has been reported?
a: 8.10
